test-details: MTT cytotoxicity assay, MCF-7
Assay type: cell-based
experimental-setup: human, MCF-7 breast cells, read-out: Cytotoxic IC50 MCF-7
readout-kind: IC50 at 48 h (µM)
Answers are plain numbers, in µM.

In one line, give reported IC50 at 48 h of the entry CC(=O)OC[C@H]1O[C@@H](SC2=NC(=O)CS2)[C@H](OC(C)=O)[C@@H](OC(C)=O)[C@@H]1OC(C)=O . 12.4

###

Tested on: HepG2 cells
test-details: MTT cytotoxicity assay, HepG2
Format: cell-based
experimental-setup: Homo sapiens, HepG2, 48 h, read-out: Cytotoxic IC50 HepG2
readout-kind: pIC50
Give bare numbers, as −log10 of the molar value.

O=C1NC(=S)S/C1=C\c1ccc2c(c1)OCO2 [Compound 3f] ... 5.05
O=C1NC(=S)S/C1=C\c1ccc2c(c1)OCCO2 [Compound 3c] ... 4.93
COc1ccc(/C=C2\SC(=S)NC2=O)cc1 [Compound 3d] ... 4.74

Could you report pIC50 for every entry in the following list?
1. COc1cccc(/C=C2\SC(=S)NC2=O)c1O [Compound 3e]
2. O=C1NC(=O)/C(=C/c2ccc(Cl)cc2Cl)S1 [Compound 14]

[4.79, 4.43]

Provide pIC50 values for the following items, in order.
1. CC(=O)OCC1OC(SC2=NC(=O)C(=Cc3ccc(Cl)cc3Cl)S2)C(OC(C)=O)C(OC(C)=O)C1OC(C)=O (stereo not shown) [Compound 13b]
2. CC(=O)OC[C@H]1O[C@@H](SC2=NC(=O)/C(=C/c3ccc4c(c3)OCCO4)S2)[C@H](OC(C)=O)[C@@H](OC(C)=O)[C@@H]1OC(C)=O [Compound 13c]
3. CC(=O)OCC1OC(SC2=NC(=O)C(=Cc3ccccc3)S2)C(OC(C)=O)C(OC(C)=O)C1OC(C)=O (stereo not shown) [Compound 13a]
4. O=C1NC(=S)S/C1=C\c1ccc(Cl)cc1Cl [Compound 3b]
5. CC(=O)OC[C@H]1O[C@@H](N2C(=O)CSC2=S)[C@H](OC(C)=O)[C@@H](OC(C)=O)[C@@H]1OC(C)=O [Compound 6]

1: 5.14; 2: 4.67; 3: 4.76; 4: 5.11; 5: 6.68
